test: Oral bioavailability in mouse at 100 mg/kg by LC/MS/MS analysis; type: ADME, organism-based; details: in vivo
measured.property: bioavailability (%)
Enter your answer as a number in %; do not include the unit.

Identify bioavailability associated with the compound `C[S@@+]([O-])[C@@H]1CC[C@@H]2CN1C(=O)N2O[C@H](F)C(=O)OC1CCCCC1`
102

* * *

assay: Cmax in mouse at 100 mg/kg,po by LC/MS/MS analysis; format: ADME, organism-based; design: dose 100 mg/kg, route po; settings: in vivo
measured.property: Cmax (µg/mL)
Enter your answer as a number in µg/mL; do not include the unit.

Identify Cmax associated with the molecule `C[S@@+]([O-])[C@@H]1CC[C@@H]2CN1C(=O)N2O[C@H](F)C(=O)OC1CCCCC1`
52

Data provenance is ChEMBL document CHEMBL5236549.
